Assay System: HLA-B*07:02
Test Description: IEDB peptide-MHC binding, purified MHC/competitive/radioactivity; filed as Kd, often an IC50 or EC50 that approximates it; bounds were set here for any values at or beyond the usual limits of such assays
Measurement Conditions: source organism: Vaccinia virus WR
pKd: −log10 of the molar value.
# binarize pKd: threshold 7 inclusive, high side 1 (yes), low side 0 (no)

| Sequence Entry | Assay System | Label |
| --- | --- | --- |
| LPLTSLVITY | HLA-B*07:02 | 0 (no) |
| TPIFSDLLKY | HLA-B*07:02 | 1 (yes) |
| EPLSPDTCL | HLA-B*07:02 | 0 (no) |
| SPLTLLIKTL | HLA-B*07:02 | 0 (no) |
| NPSILPSLI | HLA-B*07:02 | 0 (no) |
| HPDFCKNRRY | HLA-B*07:02 | 0 (no) |
| FPQHVITKDV | HLA-B*07:02 | 1 (yes) |
| NPIINTHSF | HLA-B*07:02 | 1 (yes) |

Where do these numbers come from? They come from the Immune Epitope Database (IEDB).
